Tested on: tobacco leaves
Experiment: Effect of peptide infiltration on tobacco leaves (lesion size)
Format: in vivo
Settings: D-amino acid lipopeptides; 250 µM, 100 µL infiltrated into tobacco leaves, lesion diameter, 48 h, at least three leaves; ± confidence interval
Where a SMILES comes first, the peptide text is derived from it. [ ]: non-standard residue; d: D form. The star is where a group is joined. Lauroyl = CCCCCCCCCCCC(=O)*; Butyryl = CCCC(=O)*
So I've got a bunch of compounds here, and I need their Size of the lesion (mm) 250 µM values.
Answers are plain numbers, in mm.

COMPOUND	Size of the lesion (mm) 250 µM
CCCCCC(=O)N[C@@H](CCCCN)C(=O)N[C@@H](CCCCN)C(=O)N[C@@H](CC(C)C)C(=O)N[C@H](Cc1ccccc1)C(=O)N[C@@H](CCCCN)C(=O)N[C@@H](CCCCN)C(=O)N[C@H](C(=O)N[C@@H](CC(C)C)C(=O)N[C@@H](CCCCN)C(=O)N[C@@H](Cc1ccc(O)cc1)C(=O)N[C@@H](CC(C)C)C(N)=O)[C@@H](C)CC [BP472, C5H11CO-KKLfKKILKYL-NH2]	4
CCCC(=O)NCCCC[C@H](NC(=O)[C@H](CCCCN)NC(=O)[C@H](CC(C)C)NC(=O)[C@@H](NC(=O)[C@H](CCCCN)NC(=O)[C@H](CCCCN)NC(=O)[C@@H](Cc1ccccc1)NC(=O)[C@H](CC(C)C)NC(=O)[C@H](CCCCN)NC(=O)[C@H](CCCCN)NC(C)=O)[C@@H](C)CC)C(=O)N[C@@H](CC(C)C)C(N)=O [BP475, Ac-KKLfKKILKK(COC3H7)L-NH2] (Ac-KKL[dF]KKILKK(Butyryl)L-NH2)	10

Please look at the items below and tell me Size of the lesion (mm) 250 µM for each one, in order.
1. CCCCCCCCCCCC(=O)NCCCC[C@H](NC(=O)[C@H](CCCCN)NC(=O)[C@H](CCCCN)NC(C)=O)C(=O)N[C@H](Cc1ccccc1)C(=O)N[C@@H](CCCCN)C(=O)N[C@@H](CCCCN)C(=O)N[C@H](C(=O)N[C@@H](CC(C)C)C(=O)N[C@@H](CCCCN)C(=O)N[C@@H](Cc1ccc(O)cc1)C(=O)N[C@@H](CC(C)C)C(N)=O)[C@@H](C)CC [BP500, Ac-KKK(COC11H23)fKKILKYL-NH2] (Ac-KKK(Lauroyl)[dF]KKILKYL-NH2)
2. CCCC(=O)NCCCC[C@H](NC(=O)[C@H](CC(C)C)NC(=O)[C@@H](NC(=O)[C@H](CCCCN)NC(=O)[C@H](CCCCN)NC(=O)[C@@H](Cc1ccccc1)NC(=O)[C@H](CC(C)C)NC(=O)[C@H](CCCCN)NC(=O)[C@H](CCCCN)NC(C)=O)[C@@H](C)CC)C(=O)N[C@@H](Cc1ccc(O)cc1)C(=O)N[C@@H](CC(C)C)C(N)=O
3. CCCC(=O)N[C@@H](CCCCN)C(=O)N[C@@H](CCCCN)C(=O)N[C@@H](CC(C)C)C(=O)N[C@H](Cc1ccccc1)C(=O)N[C@@H](CCCCN)C(=O)N[C@@H](CCCCN)C(=O)N[C@H](C(=O)N[C@@H](CC(C)C)C(=O)N[C@@H](CCCCN)C(=O)N[C@@H](Cc1ccc(O)cc1)C(=O)N[C@@H](CC(C)C)C(N)=O)[C@@H](C)CC
4. CCCC(=O)NCCCC[C@H](NC(=O)[C@H](Cc1ccc(O)cc1)NC(=O)[C@H](CCCCN)NC(=O)[C@H](CC(C)C)NC(=O)[C@@H](NC(=O)[C@H](CCCCN)NC(=O)[C@H](CCCCN)NC(=O)[C@@H](Cc1ccccc1)NC(=O)[C@H](CC(C)C)NC(=O)[C@H](CCCCN)NC(=O)[C@H](CCCCN)NC(C)=O)[C@@H](C)CC)C(N)=O [BP496, Ac-KKLfKKILKYK(COC3H7)-NH2] (Ac-KKL[dF]KKILKYK(Butyryl)-NH2)
5. CCCC(=O)NCCCC[C@H](NC(=O)[C@@H](NC(=O)[C@H](CCCCN)NC(=O)[C@H](CCCCN)NC(=O)[C@@H](Cc1ccccc1)NC(=O)[C@H](CC(C)C)NC(=O)[C@H](CCCCN)NC(=O)[C@H](CCCCN)NC(C)=O)[C@@H](C)CC)C(=O)N[C@@H](CCCCN)C(=O)N[C@@H](Cc1ccc(O)cc1)C(=O)N[C@@H](CC(C)C)C(N)=O [BP474, Ac-KKLfKKIK(COC3H7)KYL-NH2] (Ac-KKL[dF]KKIK(Butyryl)KYL-NH2)

## Result
1: 9; 2: 8; 3: 12; 4: 10; 5: 4
